test system: OVCAR-4; experiment: NCI tumour cell line growth inhibition, 48 h
The source made the active and inactive calls. Cut-off read from the data, not from the text of the source: active = GI50 up to about 1.1 µM and inactive = higher.

| compound | GI50 |
| --- | --- |
| O=C(CC(C(=O)c1cccs1)c1ccsc1)c1cccs1 (stereo not given) | 79.8 µM (inactive) |
| CCCCCCNc1n[nH]c(=O)c2c1nnn2Cc1ccccc1 | > 100 µM (inactive) |
| CN(CCCNC(=O)c1cn(C)c2c1ccc1cc(Cl)ccc12)CCCNC(=O)c1cn(C)c2c1ccc1cc(Cl)ccc12 | 2.52 µM (inactive) |
| O=C(c1ccccc1)c1cc(-c2ccccc2)c(-c2ccccc2)[nH]c(=O)c1=O | 33.7 µM (inactive) |
| CC[C@H]1CNC(=O)CC1CC(=O)OC (stereo not given in full) | > 100 µM (inactive) |

###

Readings of GI50 for the listed molecules
system: UO-31; assay: NCI tumour cell line growth inhibition, 48 h
Calls of active or inactive are those of the source. Rule as the data show it: active = GI50 up to about 1.1 µM and inactive = higher.

| molecule | GI50 |
| --- | --- |
| Cc1cc(C)c(S(=O)(=O)N(CCCCCN)OCCCN)c(C)c1 | 14.1 µM (inactive) |
| CN(C(=O)c1ccccc1)c1ccc2c(c1)C(=O)c1ccccc1C2=O | > 100 µM (inactive) |
| CC(=O)c1c(SCCN2CCCC2)n(-c2ccccc2)c(=S)n(-c2ccccc2)c1=O | 1.4 µM (inactive) |
| Cc1ccc(Nc2nc(O)c3[nH]cnc3n2)cc1CO | 16 µM (inactive) |
| COc1cc2nc(Sc3c([N+](=O)[O-])ncn3C)[nH]c2cc1OC | 46 µM (inactive) |
| C=C1C(=O)O[C@H]2C/C(C)=C/CC/C(C)=C/CC[C@@](C)(O)[C@@H](I)C[C@@H]12 | 11.7 µM (inactive) |
| CCOC(=O)C(CCN1CCC2(CC1)C(=O)N(C)CN2c1ccccc1)C(=O)OCC | > 100 µM (inactive) |
| CCCCCn1cc2c3c(cccc31)C1C=C(C)CN(C)[C@@H]1C2.Cc1ccc(C(=O)OC(C(=O)O)C(OC(=O)c2ccc(C)cc2)C(=O)O)cc1 (stereo not given) | 3.86 µM (inactive) |
| COc1cc(C2c3cc4c(cc3OC(NNC(N)=O)C2C)OCO4)cc(OC)c1O (stereo not given) | 8.04 µM (inactive) |
| Cc1ccccc1-c1cc(=O)c2cc(C)c(C)c(C(=O)O)c2o1 | > 100 µM (inactive) |
| COc1cc(C(C[N+](=O)[O-])SC(C)=O)ccc1OCc1ccccc1 (stereo not given) | 4.57 µM (inactive) |
| O=C1N/C(=N\N=C\c2ccccc2)C(c2ccccc2)O1 (stereo not given) | 15.9 µM (inactive) |
| Cc1cc2c(=O)cc(-c3ccc(Cl)cc3Cl)oc2c(C(=O)O)c1C | > 100 µM (inactive) |
| NC1CCCCC1.O=P(O)(O)C1(P(=O)(O)O)CC1 | > 100 µM (inactive) |
| CCC/C=C1\CCC(CN(C)C)C1=O (stereo not given) | 12.4 µM (inactive) |

###

tested on: NCI/ADR-RES; assay: NCI tumour cell line growth inhibition, 48 h
Activity calls are given as the source filed them. Rule as the data show it: active = GI50 up to about 1.1 µM and inactive = higher.
Outcome codes: active, inactive

| compound | targetOfAssay | assignedLabel |
| --- | --- | --- |
| CC(C)NC(=O)OCc1c(COC(=O)NC(C)C)c(-c2ccc[n+](COC(=O)C(C)(C)C)c2)n2c1CCC2 | NCI/ADR-RES | inactive |
| O=c1ccc2nc3ccc(O)cc3oc-2c1 | NCI/ADR-RES | inactive |
| CCCCCCCCCCC(O)[C@H]1CCC(C2CC[C@H]([C@H](O)CCCCCCCCCCC(O)CC3=CC(C)OC3=O)O2)O1 (stereo not given in full) | NCI/ADR-RES | active |
| O=C(CCCNc1nc(-c2ccccc2)cs1)c1cccs1 | NCI/ADR-RES | inactive |
| Clc1ccc(Cc2nc3cc(CCN4CCN(c5ccccc5)CC4)ccc3[nH]2)cc1 | NCI/ADR-RES | inactive |

###

Parameter GI50: see the listing below.
system: A549; test: NCI tumour cell line growth inhibition, 48 h
Activity calls are given as the source filed them. No stated cut-off is given here; in the data, active = GI50 up to about 1.1 µM and inactive = higher.

| compound | GI50 |
| --- | --- |
| COC(=O)[C@@H]1C(=O)O[C@@H](c2ccc(OC)c(OC)c2OC)[C@@H]1C(=O)OC.COC(=O)[C@H]1C(=O)O[C@@H](c2ccc(OC)c(OC)c2OC)[C@@H]1C(=O)OC | > 100 µM (inactive) |
| COc1cc(CNc2nc3cc(C(F)(F)F)ccc3nc2-c2ccccc2)cc(OC)c1OC | 37.3 µM (inactive) |
| O=C1c2cc(Cc3ccccc3)c(=O)c(Cc3ccccc3)cc2C(=O)c2cc(Cc3ccccc3)c(=O)c(Cc3ccccc3)cc21 | > 100 µM (inactive) |
| Cc1cc2c(C)n(Cc3ccccc3Cl)nc2c(C(=O)O)c1C | > 100 µM (inactive) |
| c1ccc2c(c1)ccn2CCc1c[nH]c2ccccc12 | > 10 µM (inactive) |
| CCCCn1c2c(n(CCCC)c1=[Se])-c1c(n(CCCC)c(=[Se])n1CCCC)S[Se][Se]S2 | 20.7 µM (inactive) |
| CCC(C)C1NC(=O)C(NC(=O)c2c3nc4c(C(=O)NC5C(=O)NC(C(C)CC)C(=O)N6CCCC6C(=O)N(C)CC(=O)N(C)C(C(C)C)C(=O)OC5C)ccc(C)c4oc-3c(C)c(=O)c2O)C(C)OC(=O)C(C(C)C)N(C)C(=O)CN(C)C(=O)C2CCCN2C1=O (centres undefined) | 2.47 µM (inactive) |
| COc1cc(/C=C2\[C@H]3c4c(c(OC)c(C)c(OC)c4OC)CC(C(=O)N2Cc2ccccc2)N3C)c(OC)c(C)c1OC | > 100 µM (inactive) |
| C[C@@H](CC(O)C(O)C(C)(C)O)C1CCC23CC12CCC1[C@@]2(C)CCC(=O)C(C)(C)C2CC(OC2OC(CO)C(O)C(O)C2O)[C@]13C (some centres undefined) | > 10 µM (inactive) |
| COc1ccc(C2C3=C(Nc4ncnn42)c2ccccc2OC3c2ccccc2)cc1 (centres undefined) | 14.9 µM (inactive) |
| Cc1c2cc[n+](COC(=O)c3ccccc3)cc2c(C)c2c1[nH]c1ccccc12 | 0.299 µM (active) |
| Cc1ccc2[nH]c3c(C)c4ccncc4c(C)c3c2c1 | 0.966 µM (active) |
| O=c1[nH]c(=O)n(C2OC3COC2C3O)cc1F (centres undefined) | > 100 µM (inactive) |
| CC1(C(=O)O)CCC(C(=O)O)C(C)(C)O1 (centres undefined) | > 100 µM (inactive) |

###

Recorded GI50 values (HCT-15) are given below.
measuredEndpoint: GI50 (µM)

| compound | measuredEndpoint | relationQualifier | reportedResult |
| --- | --- | --- | --- |
| CC(=O)NC1=C(C)C(=O)c2c(nc3n2CCC3O)C1=N (stereo not given) | GI50 | = | 19.2 |
| CC[C@H]1CNC(=O)CC1CC(=O)OC (stereo not given in full) | GI50 | > | 100 |
| C=C1C(=O)OC2/C=C(\C)CC/C=C(\C)CC(OC(=O)/C(=C/CO)CO)[C@@H]12 (stereo not given in full) | GI50 | = | 5.87 |
| N#CC(C(=O)CCC(=O)Nc1cccc(C(F)(F)F)c1)c1ccccc1 (stereo not given) | GI50 | > | 100 |
| CC(=O)O/N=C/c1ncccc1OC(C)=O | GI50 | > | 100 |

###

system: SK-MEL-5; test: NCI tumour cell line growth inhibition, 48 h
Active and inactive are the calls of the source. Rule as the data show it: active = GI50 up to about 1.1 µM and inactive = higher.
Labels: class 1 = active, class 0 = inactive

| molecule | assignedLabel |
| --- | --- |
| CC12CC3OC(=O)C1COC14OC5(C2C1=O)C(O)(CCC1C4CC2OC24CC=CC(=O)C14C)C(=O)OC35C (stereo unspecified) | class 0 |
| COc1ccc2c(c1)c1c3c(ccc4ncn2c43)N(CCN(C)C)CCN=1 | class 1 |
| CC(C)C(/C=C/c1ccc(Cl)cc1)=N\NC(=S)NN | class 0 |
| CCOC(=O)NC(Nc1ncn(C(NC(=O)OCC)(C(F)(F)F)C(F)(F)F)n1)(C(F)(F)F)C(F)(F)F | class 0 |
| CC(C)(C)C(=O)C(C(=O)C(C)(C)C)C(=O)C(C)(C)C | class 0 |
| CCCn1cnc2c(/N=N/O)ncnc21 | class 0 |
| Cc1cc(C)c(NC(=S)NC(=O)c2ccccc2)cc1C | class 0 |
| Cc1cc2c(nn1)CCc1c-2no[n+]1[O-] | class 0 |
| CC1=CC2CCC1(C)C/C2=C(/C)OC=O (stereo unspecified) | class 0 |
| COC1CC2C3/C(=N/Nc4ccc([N+](=O)[O-])cc4[N+](=O)[O-])CCC2(C)C3C1 (stereo unspecified) | class 0 |
| CCOC(=O)NC(=O)c1cn(CCCCCCCCCCC(=O)N2CCN(CCn3cc(C(=O)NC(=O)OCC)c(=O)[nH]c3=O)CC2)c(=O)[nH]c1=O | class 0 |
